experiment-summary: yeast display, Sf9 membrane polyspecificity reagent, FACS + sequencing; frameworks hold sequencing errors
result-type: polyreactivity (PSR sort gate)

Worked cases, answers included:
The value of polyreactivity (PSR sort gate) measured for the sequence `QVQLVESGGGLVQAGGSLRLSCAASGFILKDNAMGWYRQAPGKERELVAAISSGGGTYYADSVKGRFTISRDNAKNTVSLKMNSLKPEDTAVYYCNADDLYSLNDSSEDYWGQGTQVTVSS` turned out to be high polyreactivity

Reported polyreactivity (PSR sort gate) of `QVQLVESGGGLVQAGGSLRLTCAASGSIFGYAMGWSRQAPGKERELVAALSFSGVSTYYAYSVKGRFTISRDNAKNTVYLQMNSLKPEDTAVYYCNAYSDGDEDYWGQGTQVTVSS` : low polyreactivity

// field: polyreactivity (PSR sort gate); key: `QVQLGESGGGLVQAGVSLRLSCAASGNTFYWNAMGWYRQAPGKERELVAAISTTGVSTYYADSVKGRFTISRDNAKNTVYLQMNSLKPEDTAVYYCAVDPPYSNPITINEDYWGQGTQVTVSS` ; value = low polyreactivity

Entry `QVQLVESGGGLDQAGGSLRLSCAASGITFTFNAMGWYRQAPGKERELVAAISSTTSTKYADSVKGRFTISRDNAKYTVYLQMNSLKPEDTAVYYCAAVEFELRGDYWGQGTQVTVSS` ; polyreactivity (PSR sort gate) = low polyreactivity

The value of polyreactivity (PSR sort gate) measured for the sequence `QVQLVESGGGLVQAGGSLRLSCAASGRTFYINAMGWYRQAPGKERELVATISRSGGDTYYADSVKGRFTISRDNAKNTVYIEMTSLKPEDTAVYFCNARQYYYRSGAYASRYLYNYWGQGTQVTVSS` turned out to be high polyreactivity

Continuing:
Lab book: polyreactivity (PSR sort gate) of `QVQLVESGGGLVQAGGSLRLSCAASGRIFQYYAAMGWYRQAPGKERELVASIRATGGSTYYADSVKGRFTISRDNAKNTVYLQMNSLKPEDTAVYYCAARFAAKSLPAYDYWGQGTQVTVSS` noted as low polyreactivity

The recorded polyreactivity (PSR sort gate) for `QVQLVESGGGLVQAGGSLRLTCAASGSTLWYYAMGWYRQAPGKERELVADITSSGNTNYADSVKGRFTISRDNAKNTVYLQMNSLKPEDTAVYYCAADSANYQWYLSWQKDDYWGQGTQVTVSS` is low polyreactivity

Quick note, polyreactivity (PSR sort gate) for `QVQLVESGGGLVQAGGSLRLSCAASGSTFDVNAMGSYRQAPGKERELVAAISWNSGSTYYADSVKGRFTISRDNAKNTVYLQMNSLKPEDTAVYYCAATYGTGRRSKYGYWGQGTQVTVSS` landed at high polyreactivity

# sequence `QVQLVESGGGLVQAGGILRLSCAASGSILDLNAMGWYRQAPGKERELFAAISYSGDSTYYADSVKGRFTISRDNAKNTVYLQMNSLKPEDTAVYEGAAEVYGAVYDYWGQGTQVTVAS` ; its polyreactivity (PSR sort gate) = low polyreactivity

The value of polyreactivity (PSR sort gate) measured for the sequence `QVQLVESGGGLVQAGGSLRLSCAASGRIFAHYTMGWYRQAPGKERELVAAISIRGGRTNYTDSVKGRFTISRDNAKNTVYLQMNSLKPEDTAVYYCNARGARYYWYQLGHDYWGQGTQVTVSS` turned out to be high polyreactivity

polyreactivity (PSR sort gate) in this record for `QVKLVESGGGLVQAGGSLRLSCAASGRIFYGYTMVWYRQAPGKERELVAAISSSGGSTYYADSVKGRFTISRDNAKNTVYLQMISLKPEDTAVYYCAAYVPYSPYHVEFNYWGQGTQVTVSS` : high polyreactivity
